The measurements presented in this section are drawn from PubChem BioAssay AID248.

Listed here are compounds together with their documented T/C.
Test system: L1210 leukemia ip in BDF1 mice, survival T/C
test: NCI In Vivo Anticancer Drug Screen. Data for tumor model L1210 Leukemia (intraperitoneal) in B6D2F1 (BDF1) mice
measurement.setup: endpoint: mean survival time; dose: 6.25 mg/kg/injection; schedule: Q04DX003 (ip); vehicle: saline; higher = longer survival
Toxic doses and inconclusive results are not listed.

N#CCC[CH2][Sn]([Br])([Br])[c]1ccccc1
96 % of control
COCCNCCN1CCN(CCCN2c3ccccc3Sc3ccc(C(F)(F)F)cc32)CC1
110 % of control
CC(CN1CCN(CCOCCO)CC1)CN1c2ccccc2Sc2ccc(Cl)cc21 (centres undefined)
105 % of control

Field: next compound
query: # lookup: T/C of `c1ccc2c(c1)Sc1ccccc1N2CCCN1CCCC1`
result: 108 % of control

###

System: L1210 leukemia ip in BDF1 mice, survival T/C
test: NCI In Vivo Anticancer Drug Screen. Data for tumor model L1210 Leukemia (intraperitoneal) in B6D2F1 (BDF1) mice
measurement.setup: endpoint: mean survival time; dose: 25.0 mg/kg/injection; schedule: Q01DX009 (ip); vehicle: saline with Tween-80; higher = longer survival
Inconclusive results and toxic doses are left out.
Reported values of T/C for individual entries

C[N+](C)(Cc1ccccc1)CC(O)COc1ccccc1 (configuration not stated)
94 % of control
O=C1OC(=O)C2C3C=CC(O3)C12 (configuration not stated)
108 % of control
Cc1cc(OCCOC(=O)Nc2cccc(C(F)(F)F)c2)cc(C)c1Cl
102 % of control
O=C(CCBr)c1ccc(Cl)cc1
93 % of control
CC1(C)OCC(CO)([N+](=O)[O-])CO1
108 % of control

query: Dear colleague, I am looking for the recorded T/C of the following compound: `COc1ccc(C(=O)CBr)c(OC)c1`
result: 96 % of control

query: Can you look up the measured T/C of `O=C(/C(=C\Cl)CBr)c1ccccc1` for me?
result: 88 % of control

###

System: L1210 leukemia ip in BDF1 mice, survival T/C
test: NCI In Vivo Anticancer Drug Screen. Data for tumor model L1210 Leukemia (intraperitoneal) in B6D2F1 (BDF1) mice
measurement.setup: endpoint: mean survival time; dose: 200.0 mg/kg/injection; schedule: Q01DX001 (ip); vehicle: carboxymethylcellulose (CMC); higher = longer survival
Inconclusive results and toxic doses are left out.
assay.readout: T/C

In the examples that follow, each entry is paired with its recorded T/C.
Cn1ncc2c(=O)[nH]nnc21
89 % of control
CN(c1ccccc1)c1ccc([N+](=O)[O-])cc1[N+](=O)[O-]
102 % of control
N=C(c1ccccc1)c1ccccc1S(=O)(=O)Nc1ccccc1
101 % of control
CC(=O)c1ccc(Cl)cc1
91 % of control
COC(=O)C1(O)c2ccccc2-c2ccccc21
111 % of control

query: Could you tell me which T/C is on file for `COc1ccc(CCNC(=O)C2CCN(CCc3ccc(OC)c(OC)c3)CC2)cc1OC` ?
result: 96 % of control

query: Need T/C, item Cc1cn(C2CC(O)C(CO)O2)c(=O)n(CCCc2ccccc2)c1=O (configuration not stated)
result: 87 % of control

query: // query T/C value for entry Nc1ncnc2c(C3OC(CO)C(O)C3O)[nH]nc12 (configuration not stated)
result: 115 % of control

query: Suppose we examine the molecule `CS(=O)(=O)Oc1ccc2cc(Br)ccc2c1` ; what T/C value has been reported?
result: 100 % of control

query: Returns the measured T/C for the input molecule. Input: CC1=NN(c2ccccc2)C(=O)C1N=Nc1ccc(S(=O)(=O)Nc2nnc(C)s2)cc1 (configuration not stated)
result: 106 % of control

query: Item `COc1ccc(NC(=O)Oc2ccccn2)cc1` has what recorded T/C?
result: 101 % of control

query: Form field: reported T/C of `Brc1ccc(-c2csc(Nc3nc(-c4ccc(Br)cc4)cs3)n2)cc1`
result: 98 % of control
